- SYSTEM_TESTED: Human recombinant CK1ε (Homo sapiens, UniProt P49674)
- Construct: purchased Life Technologies
- Sequence (P49674 whole entry): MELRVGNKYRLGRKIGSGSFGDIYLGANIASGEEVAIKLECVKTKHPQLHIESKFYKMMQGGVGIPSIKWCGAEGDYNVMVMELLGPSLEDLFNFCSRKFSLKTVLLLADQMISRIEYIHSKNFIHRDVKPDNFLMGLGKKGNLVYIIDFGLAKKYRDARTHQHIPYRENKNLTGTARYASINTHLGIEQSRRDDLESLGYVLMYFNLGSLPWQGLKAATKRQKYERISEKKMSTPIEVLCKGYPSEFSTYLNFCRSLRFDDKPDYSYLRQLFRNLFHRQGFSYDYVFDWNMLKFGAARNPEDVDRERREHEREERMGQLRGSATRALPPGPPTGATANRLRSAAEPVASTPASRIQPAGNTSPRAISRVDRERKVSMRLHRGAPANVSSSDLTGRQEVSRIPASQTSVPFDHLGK
- EXPERIMENT_DESCRIPTION: CK1ε assay (luminescent detection of ADP)
- Type: biochemical
- MEASUREMENT_SETUP: 10 nM enzyme, 50 µM ATP, 50 µM substrate peptide, 40 min incubation
VALUE_KIND: CK1 inhibition pEC50 average
// keep it numeric: no unit symbol after the value

Report CK1 inhibition pEC50 average for Nc1nccc(-c2c(O)[nH]c3ccc(F)cc23)n1 please.
6.5

Report CK1 inhibition pEC50 average for Nc1nccc(-c2c(O)[nH]c3ccccc23)n1 please.
6.1

Report CK1 inhibition pEC50 average for Nc1nccc(-c2c(O)[nH]c3ccc(Br)cc23)n1 please.
6.1

Report CK1 inhibition pEC50 average for CS(=O)(=O)c1ccc2c(-c3ccnc(N)n3)c(O)[nH]c2c1 please.
5.4

Report CK1 inhibition pEC50 average for Nc1nccc(-c2c(O)[nH]c3ccc([N+](=O)[O-])cc23)n1 please.
4.7

Report CK1 inhibition pEC50 average for Nc1nccc(-c2c(O)[nH]c3ccc(Cl)cc23)n1 please.
6.7

Report CK1 inhibition pEC50 average for COC(=O)c1ccc2c(-c3ccnc(N)n3)c(O)[nH]c2c1 please.
5.9

---

- SYSTEM_TESTED: Human recombinant GSK-3β (Homo sapiens)
- Construct: purchased Millipore
- Sequence (P49841 whole entry): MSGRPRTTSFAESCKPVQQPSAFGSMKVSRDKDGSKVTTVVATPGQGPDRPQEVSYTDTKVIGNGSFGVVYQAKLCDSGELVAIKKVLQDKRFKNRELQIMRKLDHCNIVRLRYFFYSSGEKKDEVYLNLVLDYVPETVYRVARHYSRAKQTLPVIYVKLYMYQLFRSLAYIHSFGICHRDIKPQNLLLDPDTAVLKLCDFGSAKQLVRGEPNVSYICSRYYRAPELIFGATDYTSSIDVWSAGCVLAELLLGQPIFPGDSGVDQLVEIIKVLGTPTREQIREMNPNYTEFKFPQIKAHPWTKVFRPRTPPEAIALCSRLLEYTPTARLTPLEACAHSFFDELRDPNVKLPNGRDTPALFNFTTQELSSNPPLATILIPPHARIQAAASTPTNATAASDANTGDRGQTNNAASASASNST
- EXPERIMENT_DESCRIPTION: GSK-3β assay (luminescent detection of ADP)
- Assay type: biochemical
- MEASUREMENT_SETUP: 4 nM enzyme, 5 µM ATP, 15 µM substrate peptide, 40 min incubation
Can you tell me GSK3β inhibition pEC50 average for the items I'm about to list?
// keep it numeric: no unit symbol after the value

Report GSK3β inhibition pEC50 average for Nc1nccc(-c2c(O)[nH]c3ccc(Br)cc23)n1 please.
7.8

Report GSK3β inhibition pEC50 average for Nc1nccc(-c2c(O)[nH]c3ccc(Cl)cc23)n1 please.
7.9

Report GSK3β inhibition pEC50 average for Nc1nccc(-c2c(O)[nH]c3ccc(F)cc23)n1 please.
7.5

Report GSK3β inhibition pEC50 average for Nc1nccc(-c2c(O)[nH]c3ccccc23)n1 please.
6.9

Report GSK3β inhibition pEC50 average for Nc1nccc(-c2c(O)[nH]c3ccc([N+](=O)[O-])cc23)n1 please.
6.7

Report GSK3β inhibition pEC50 average for COC(=O)c1ccc2c(-c3ccnc(N)n3)c(O)[nH]c2c1 please.
6.6

Report GSK3β inhibition pEC50 average for CS(=O)(=O)c1ccc2c(-c3ccnc(N)n3)c(O)[nH]c2c1 please.
5.3

Report GSK3β inhibition pEC50 average for Nc1nccc(-c2c(O)[nH]c3ccc(F)c(F)c23)n1 please.
7.6

---

Can you tell me Cdk5 inhibition pEC50 average for the items I'm about to list?
- SYSTEM_TESTED: Human recombinant Cdk5/p35 heterodimer (Homo sapiens, UniProt Q00535)
- Construct: purchased Life Technologies
- Sequence (Q00535 whole entry): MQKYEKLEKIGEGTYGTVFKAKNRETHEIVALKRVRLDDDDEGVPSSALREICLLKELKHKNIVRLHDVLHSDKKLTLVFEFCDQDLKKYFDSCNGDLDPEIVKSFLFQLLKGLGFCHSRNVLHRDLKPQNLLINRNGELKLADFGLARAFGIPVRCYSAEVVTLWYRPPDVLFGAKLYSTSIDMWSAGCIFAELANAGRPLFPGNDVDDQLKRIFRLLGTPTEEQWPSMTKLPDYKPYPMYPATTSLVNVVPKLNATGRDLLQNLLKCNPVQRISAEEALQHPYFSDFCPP
- Sequence (Q15078 whole entry partner): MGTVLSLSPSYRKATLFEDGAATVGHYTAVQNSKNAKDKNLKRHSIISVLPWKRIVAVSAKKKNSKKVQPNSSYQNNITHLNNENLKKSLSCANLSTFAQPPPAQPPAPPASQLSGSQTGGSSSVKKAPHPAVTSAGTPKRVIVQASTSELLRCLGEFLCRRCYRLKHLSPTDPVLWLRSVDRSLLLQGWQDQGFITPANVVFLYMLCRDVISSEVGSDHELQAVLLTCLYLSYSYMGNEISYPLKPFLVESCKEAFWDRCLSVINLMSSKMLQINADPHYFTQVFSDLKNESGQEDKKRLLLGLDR
- EXPERIMENT_DESCRIPTION: Cdk5 assay (luminescent detection of ADP, ADP Glo)
- Format: biochemical
- MEASUREMENT_SETUP: 10 nM enzyme, 10 µM ATP, 2 µM histone H1, 40 min incubation
// keep it numeric: no unit symbol after the value

What reported Cdk5 inhibition pEC50 average corresponds to Nc1nccc(-c2c(O)[nH]c3ccc(F)cc23)n1 on Human recombinant Cdk5/p35 heterodimer (Homo sapiens, UniProt Q00535)?
7.5

What reported Cdk5 inhibition pEC50 average corresponds to Nc1nccc(-c2c(O)[nH]c3ccc(F)c(F)c23)n1 on Human recombinant Cdk5/p35 heterodimer (Homo sapiens, UniProt Q00535)?
7.6

What reported Cdk5 inhibition pEC50 average corresponds to Nc1nccc(-c2c(O)[nH]c3ccc([N+](=O)[O-])cc23)n1 on Human recombinant Cdk5/p35 heterodimer (Homo sapiens, UniProt Q00535)?
6.9

What reported Cdk5 inhibition pEC50 average corresponds to COC(=O)c1ccc2c(-c3ccnc(N)n3)c(O)[nH]c2c1 on Human recombinant Cdk5/p35 heterodimer (Homo sapiens, UniProt Q00535)?
6.8

What reported Cdk5 inhibition pEC50 average corresponds to Nc1nccc(-c2c(O)[nH]c3ccccc23)n1 on Human recombinant Cdk5/p35 heterodimer (Homo sapiens, UniProt Q00535)?
8.2

---

Can you tell me Cdk5 inhibition pEC50 average for the items I'm about to list?
- SYSTEM_TESTED: Human recombinant Cdk5/p35 heterodimer (Homo sapiens)
- Construct: purchased Life Technologies
- EXPERIMENT_DESCRIPTION: Cdk5 assay (luminescent detection of ADP, ADP Glo)
- Type: biochemical
- MEASUREMENT_SETUP: 10 nM enzyme, 10 µM ATP, 2 µM histone H1, 40 min incubation
// keep it numeric: no unit symbol after the value

Report Cdk5 inhibition pEC50 average for CS(=O)(=O)c1ccc2c(-c3ccnc(N)n3)c(O)[nH]c2c1 please.
6.7

Report Cdk5 inhibition pEC50 average for Nc1nccc(-c2c(O)[nH]c3ccc(Cl)cc23)n1 please.
8.8

Report Cdk5 inhibition pEC50 average for Nc1nccc(-c2c(O)[nH]c3ccc(Br)cc23)n1 please.
8.3
